Assay: Toxicity in intramuscular dosed mouse
Format: organism-based
Conditions: in vivo, im
Would you kindly list LD50 for each of these compounds?
Hey, just the number and the unit after it is fine.

GET /value?item= `COc1cc2c(c(OC)c1OC)-c1ccc(OC)c(=O)cc1[C@@H](NC(C)=O)CC2` &field=LD50 returns 3 µmol/kg

GET /value?item= `C=CC(=O)N[C@H]1CCc2cc(OC)c(OC)c(OC)c2-c2ccc(OC)c(=O)cc21` &field=LD50 returns 17.4 µmol/kg

GET /value?item= `C/C=C/C(=O)N[C@H]1CCc2cc(OC)c(OC)c(OC)c2-c2ccc(OC)c(=O)cc21` &field=LD50 returns 3.4 µmol/kg
